Assay: growth suppression of yeast trafficking mutant, preliminary HTS, modulators of trafficking downstream of Golgi apparatus project, 1536-format plate, OD 615 nm (AID 637)
Details: yeast transport mutant growth, absorbance 615 nm, 18 h; stronger effect = higher value
The following compounds are listed with their measured inhibition values.
The reply should be a number in %, with the unit left off.

Example entries begin here.
{"Compound": "CCOc1ccc(C2/C(=C(/O)c3ccccc3)C(=O)C(=O)N2CCCN(C)C)cc1OC (stereo unspecified)", "Scale unit": "%", "Test value": 6.19}
{"Compound": "O=c1c2ccccc2nc(SCc2nnc(-c3ccccc3Br)o2)n1-c1ccccc1", "Scale unit": "%", "Test value": 3.77}
{"Compound": "COc1ccc(N2CCN(Cc3cc(=O)oc4cc(C)c(Cl)c(C)c34)CC2)cc1", "Scale unit": "%", "Test value": 1.9}
{"Compound": "CCOC(=O)CC(=O)CSc1nc(-c2cccnc2)ccc1C#N", "Scale unit": "%", "Test value": 0}
{"Compound": "CCOCCCNC(=O)C1CCC(CNS(=O)(=O)c2cccc3nsnc23)CC1 (stereo unspecified)", "Scale unit": "%", "Test value": -4.92}

Lab note: measured inhibition of NC(CO)C(=O)NNCc1ccc(O)c(O)c1O (stereo unspecified) was -2.67

----------
Assay: reversal of MRP1-mediated doxorubicin resistance, pilot screen, H69AR cells, doxorubicin co-treatment (AID 601)
Conditions: H69AR cells + 2 uM doxorubicin, CellTiter-Glo, 72 h; measured here: viability with 2 uM doxorubicin; at 10 µM; stronger effect = lower value
The following compounds are listed with their measured viability values.
The reply should be a number in %, with the unit left off.

Example entries begin here.
{"Compound": "CCOC(=O)c1cc2ccc(OC)c(OC)c2c(=O)s1", "Measure name": "viability", "Scale unit": "%", "Test value": 83.6}
{"Compound": "Cc1cc(NCC2CCCO2)n2c(nc3ccccc32)c1C#N (stereo not drawn)", "Measure name": "viability", "Scale unit": "%", "Test value": 32.1}
{"Compound": "O=C(COC(=O)c1ccco1)NCc1cccs1", "Measure name": "viability", "Scale unit": "%", "Test value": 95.3}

// switching to the query compound
Lab note: measured viability of COC1CCCCC1NS(=O)(=O)c1ccccc1 (stereo not drawn) was 96.2

----------
The following compounds are listed with their measured differential viability (reversal) values.
Assay: reversal of MRP1-mediated doxorubicin resistance, pilot screen, H69AR cells, doxorubicin co-treatment (AID 601)
Conditions: H69AR cells + 2 uM doxorubicin, CellTiter-Glo, 72 h; at 10 µM; stronger effect = higher value
The reply should be a number in %, with the unit left off.

Example entries begin here.
{"Compound": "COCc1cc(=O)[nH]c(Nc2nc3ccccc3o2)n1", "Scale unit": "%", "differential viability (reversal)": -9.32}
{"Compound": "COc1ccc(CC(=O)OCn2nnc3ccccc3c2=O)cc1", "Scale unit": "%", "differential viability (reversal)": -3.25}
{"Compound": "c1cc2c(cc1C1CCCN1)OCCCO2 (configuration not stated)", "Scale unit": "%", "differential viability (reversal)": -7.94}

Lab note: measured differential viability (reversal) of OC(CCN1CCCC1)(c1ccccc1)C1CCCCC1 (configuration not stated) was 6.63

Lab note: measured differential viability (reversal) of `Cc1nc(NCc2ccccn2)c2ccccc2n1` was 16.4

Lab note: measured differential viability (reversal) of `C(=C\c1ccccc1)/CSc1nnc(-c2ccccn2)n1Cc1ccco1` was -46.8

Lab note: measured differential viability (reversal) of `CCCC(CCC)n1[nH]c(=O)c2c(C)cc(C)nc21` was 1.53

Lab note: measured differential viability (reversal) of COc1cc(NC2c3ccccc3C(=O)N2c2ccc(C)cn2)cc(OC)c1OC (configuration not stated) was 3.73

Lab note: measured differential viability (reversal) of `OCc1nc2ccccc2n1CCCOc1ccccc1` was 16.7

Lab note: measured differential viability (reversal) of CN1C(=O)C(O)(CC(=O)c2ccc3c(c2)OCO3)c2ccccc21 (configuration not stated) was 9.22

Lab note: measured differential viability (reversal) of O=P(O)(O)C(O)C(F)(F)C(F)(F)C(F)(F)C(F)F (configuration not stated) was -5.62

Lab note: measured differential viability (reversal) of CC(=O)Nc1ccc(S(=O)(=O)N2CCSC2c2ccccc2)cc1 (configuration not stated) was 5.05

Values from PubChem BioAssay
